Tgt: TDG WT (human, UniProt Q13569 1-410)
Sequence (Q13569 whole entry): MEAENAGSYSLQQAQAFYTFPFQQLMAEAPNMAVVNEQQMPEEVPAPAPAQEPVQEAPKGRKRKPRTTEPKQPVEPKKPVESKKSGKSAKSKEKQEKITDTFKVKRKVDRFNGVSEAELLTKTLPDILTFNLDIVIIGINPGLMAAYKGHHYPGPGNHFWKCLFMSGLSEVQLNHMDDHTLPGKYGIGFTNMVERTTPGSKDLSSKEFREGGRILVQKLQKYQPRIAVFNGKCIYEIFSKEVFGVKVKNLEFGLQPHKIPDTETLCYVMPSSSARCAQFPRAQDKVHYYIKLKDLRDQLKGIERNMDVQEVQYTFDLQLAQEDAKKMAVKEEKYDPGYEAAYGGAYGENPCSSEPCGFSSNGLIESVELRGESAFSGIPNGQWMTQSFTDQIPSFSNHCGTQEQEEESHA
Protocol summary: EMSA; 20 mM HEPES pH 7.3, 1 mM EDTA, 10 mM (NH4)2SO4, 1 mM DTT, 0.2% Tween-20, 30 mM KCl; 2 nM DNA, 30 min at room temperature; 6% native PAGE at 4 C
Test conditions: protein: recombinant; tags: N-terminal 6xHis (pET28a); label: 5'-32P on the template oligonucleotide; blunt
Quantity: pKd
Just the number, please; pKd means minus log10 of the concentration in mol/L.

Report pKd, nothing else, for this binder: 28-mer 5-FU:A (dsDNA, 5-fluorouracil (X, written U) at position 17 of strand 2, opposite A12 of strand 1) DNA 1: CAGCTCTGTACATGAGCAGTGGTGACAC DNA 2: GTGTCACCACTGCTCAUGTACAGAGCTG
7.11

Data provenance is paper PMC4222680.
